Biological target: feline FcRn (FCN-F82W3, Acrobiosystems) (feline)
Experiment: SPR Carterra, IgG coupled, pH 6.0
MEASUREMENT_NAME: kon (M⁻¹ s⁻¹)
State just the number; it will be interpreted in M⁻¹ s⁻¹.

anti-NGF feline IgG1a, Fc variant S428L, E380D, S434R (antibody, part only; not given: Anti-NGF variable domains, not shown: another chain or arm of the molecule; small tags and cut ends) Fc: PPEMLGGPSIFIFPPKPKDTLSISRTPEVTCLVVDLGPDDSDVQITWFVDNTQVYTAKTSPREEQFNSTYRVVSVLPILHQDWLKGKEFKCKVNSKSLPSPIERTISKAKGQPHEPQVYVLPPAQEELSRNKVSVTCLIKSFHPPDIAVDWEITGQPEPENNYRTTPPQLDSDGTYFVYSKLSVDRSHWQRGNTYTCSVLHEALHRHHTQKSLTQSPGK    1.22e+06
anti-NGF feline IgG1a, Fc variant S290Y (antibody, part only; not given: anti-NGF variable domains, not shown: another chain or arm of the molecule; small tags and cut ends) Fc: PPEMLGGPSIFIFPPKPKDTLSISRTPEVTCLVVDLGPDDSDVQITWFVDNTQVYTAKTYPREEQFNSTYRVVSVLPILHQDWLKGKEFKCKVNSKSLPSPIERTISKAKGQPHEPQVYVLPPAQEELSRNKVSVTCLIKSFHPPDIAVEWEITGQPEPENNYRTTPPQLDSDGTYFVYSKLSVDRSHWQRGNTYTCSVSHEALHSHHTQKSLTQSPGK    661000
anti-NGF feline IgG1a, Fc variant T286E, S428R (antibody, part only; not given: anti-NGF variable domains, not shown: another chain or arm of the molecule; small tags and cut ends) Fc: PPEMLGGPSIFIFPPKPKDTLSISRTPEVTCLVVDLGPDDSDVQITWFVDNTQVYEAKTSPREEQFNSTYRVVSVLPILHQDWLKGKEFKCKVNSKSLPSPIERTISKAKGQPHEPQVYVLPPAQEELSRNKVSVTCLIKSFHPPDIAVEWEITGQPEPENNYRTTPPQLDSDGTYFVYSKLSVDRSHWQRGNTYTCSVRHEALHSHHTQKSLTQSPGK    939000
anti-NGF feline IgG1a, Fc variant S428L, S252R (antibody, part only; not given: anti-NGF variable domains, not shown: another chain or arm of the molecule; small tags and cut ends) Fc: PPEMLGGPSIFIFPPKPKDTLRISRTPEVTCLVVDLGPDDSDVQITWFVDNTQVYTAKTSPREEQFNSTYRVVSVLPILHQDWLKGKEFKCKVNSKSLPSPIERTISKAKGQPHEPQVYVLPPAQEELSRNKVSVTCLIKSFHPPDIAVEWEITGQPEPENNYRTTPPQLDSDGTYFVYSKLSVDRSHWQRGNTYTCSVLHEALHSHHTQKSLTQSPGK    974000

Quick check: kon of anti-NGF feline IgG1a, Fc variant S428Y (antibody, part only; not given: anti-NGF variable domains, not shown: another chain or arm of the molecule; small tags and cut ends) Fc: PPEMLGGPSIFIFPPKPKDTLSISRTPEVTCLVVDLGPDDSDVQITWFVDNTQVYTAKTSPREEQFNSTYRVVSVLPILHQDWLKGKEFKCKVNSKSLPSPIERTISKAKGQPHEPQVYVLPPAQEELSRNKVSVTCLIKSFHPPDIAVEWEITGQPEPENNYRTTPPQLDSDGTYFVYSKLSVDRSHWQRGNTYTCSVYHEALHSHHTQKSLTQSPGK ?
718000
